Known koff of a selection of binders
Target: T1, Human TIGIT protein with HIS tag (human, UniProt Q495A1 22-141)
T1 construct: A soluble analyte is probably only the extracellular part; also called human TIGIT recombinant protein; not shown: HIS tag
T1 sequence: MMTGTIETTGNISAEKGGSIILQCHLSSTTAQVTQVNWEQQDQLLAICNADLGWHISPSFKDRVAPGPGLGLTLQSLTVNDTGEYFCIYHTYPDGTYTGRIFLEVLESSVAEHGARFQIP
Assay: SPR Biacore T200; antibody Fc-captured, TIGIT-His analyte
Report as a plain number; the unit s⁻¹ is understood.

Answered examples (4):
{"binder": "48B5G4E12 (antibody, V domains shown, Mouse monoclonal antibody; also called mouse anti-human TIGIT monoclonal antibody 48B5G4E12) VH: QVQLQQPGAELVKPGASVKMSCKASGYTFTSYNMHWVKQTPGQGLEWIGGIYPGNGATSYNQKFKGKATLTADKSSSTAYMQLSSLTSEDSAVYYCARSGLRAMDYWGQGTSVTVSS VL: QIVLTQSPAIMSASPGEKVTMTCSASSSVSYMYWYQQKTGSSPRLLIYDTSNLASGVPVRFSGSGSGTSYSLTISRMEAEDAATYYCQQWSSYPYTFGGGTKLEIK", "readout type": "koff", "value unit": "s⁻¹", "measured value": 0.0088}
{"binder": "92E9D4B4 (antibody, V domains shown, Mouse monoclonal antibody; also called mouse anti-human TIGIT monoclonal antibody 92E9D4B4) VH: EVMLVESGGGLVKPGGSLKLSCAASGFTFSFYTMSWVRQTPEKRLEWVATISGGGGDTYYPDNVKGRFTISRDNAKNNLYLQMSSLRSEDTALYYCARSLPVDFWGQGTTLTVSS VL: QIVLTQSPAIMSASLGERVTMTCTASSSVSSTYLHWYQQKPGSSPKFWIYSTSNMASGVPARFSGSGSGTSYSLTISSMEAEDAATYYCHYYHRSPYTFGGGTKLEIK", "readout type": "koff", "value unit": "s⁻¹", "measured value": 0.00041}
{"binder": "121C2F10B5 (antibody, V domains shown, Mouse monoclonal antibody; also called mouse anti-human TIGIT monoclonal antibody 121C2F10B5) VH: EVQLVESGGDLVKPGGSLKLSCAASGFTFSTYGMSWVRQTPDKRLEWVATISSGGSYTYYPDSVKGRFTISRDNAKNTLYLQMSSLKSEDTAMYYCARQVHYFYAMDYWGQGTSVTVSS VL: DIQMTQSPASLSVSVGETVTITCRASENIYSNLAWYQQKQGKSPQVLVYAATNLADGVPSRFSGSRSGTQYSLKINSLQSEDFGSYYCQHFWDNAYTFGGGTKLEIK", "readout type": "koff", "value unit": "s⁻¹", "measured value": 0.00093}
{"binder": "11D8E12A4 (antibody, V domains shown, Mouse monoclonal antibody; also called mouse anti-human TIGIT monoclonal antibody 11D8E12A4) VH: EVLLQQSGPELVKPGASVKIPCKASGYTFTDYNMDWVKQSHGKSLEWIGDINPNNGGTIYNQKFKGKATLTVDKSSSTAYMELRSLTSEDTAVYYCARRWLLLVYTMDYWGQGTSVTVSS VL: QIVLTQSPAIMSASPGEKVTISCSASSSVSYMYWYQQKPGSSPKPWIYRTSNLASGVPARFSGSGSGTSYSLTISSMEAEDAATYYCHQYHNYPPTFGGGTKLEIK", "readout type": "koff", "value unit": "s⁻¹", "measured value": 0.0087}

Q: Fill in: koff of 100C4E7D11 (antibody, V domains shown, Mouse monoclonal antibody; also called mouse anti-human TIGIT monoclonal antibody 100C4E7D11) VH: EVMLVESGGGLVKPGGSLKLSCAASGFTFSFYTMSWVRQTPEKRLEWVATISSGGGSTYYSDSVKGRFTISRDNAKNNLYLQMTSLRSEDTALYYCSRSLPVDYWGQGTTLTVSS VL: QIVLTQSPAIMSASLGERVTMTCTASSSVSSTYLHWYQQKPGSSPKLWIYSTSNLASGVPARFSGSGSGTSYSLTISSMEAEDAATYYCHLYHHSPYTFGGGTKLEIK is ___
A: 0.00033

Q: Given the entry 70A11A8E6 (antibody, V domains shown, Mouse monoclonal antibody; also called mouse anti-human TIGIT monoclonal antibody 70A11A8E6) VH: DVQLQESGPGLVKPSQSLSLTCTVTGYSITSDYAWNWIRQFPGNKLEWMGYIIYSGSTSYNPSLKSRISITRDTSKNQFFLQLNSVTTEDTATYYCARGWFRRPDYWGQGTTLTVSS VL: DIVMTQSHEFMSTSLGDRVSITCKASQDVSTAVAWHQQKPGQSPKQLIYSASYRYTGVPDRFTGSGSGTDFTFTISNMQAEDLAVYYCQQHYSVPLTFGAGTKLELK , report its measured koff.
A: 0.0044

Q: What does the record list as koff for 83G6H11C12 (antibody, V domains shown, Mouse monoclonal antibody; also called mouse anti-human TIGIT monoclonal antibody 83G6H11C12) VH: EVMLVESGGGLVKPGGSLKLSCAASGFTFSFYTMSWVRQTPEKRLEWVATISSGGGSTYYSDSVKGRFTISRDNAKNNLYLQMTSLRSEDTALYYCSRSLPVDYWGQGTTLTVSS VL: QIVLTQSPAIMSASLGERVTMTCTASSSVSSSYLHWYQQKPGSSPKLWIYSTSNLASGVPARFSGSGSGTSYSLTISSMEAEDAATYYCHLYHHSPYTFGGGTKLEIK ?
A: 0.00043

Q: Fill in the blank: the reported koff of 104G12E12G2 (antibody, V domains shown, Mouse monoclonal antibody; also called mouse anti-human TIGIT monoclonal antibody 104G12E12G2) VH: EVQLQQSGPELVKPGASVKISCKASGYSFTGSYIHWVKQNHVKTLEWIGRINPHNGPTSYNQNFKGKASLTVDLSSSTAYMEVHSLTSEDSAVYYCVRYDGYYGGALDYWGQGTSVTVSS VL: DIQMTQSPSSLSASLGERVSLTCRASQEISGYLSWLQQKPDGTIKRLIYAASTLDSGVPKRFSGSRSGSDYSLTISSLESEDFADYYCLQYASYPYTFGGGTKLEIK is ____.
A: 0.00083

The origin of these recorded values is patent US20210095028A1.
